biological target: UniProt:P07858; experiment: Inhibition of human cathepsin B using Suc-LLVY-AMC as substrate assessed as remaining enzyme activity at 20 uM incubated for 15 mins prior to substrate addition measured for 30 mins by fluorescence assay
Active and inactive are the calls of the source. The calls are words filed in the database; no cut-off is given here.
ENDPOINT NAME: inhibition

{"TEST SMILES": "C[C@H](NC(=O)[C@H](Cc1ccc(OCc2ccccc2)cc1)NC(=O)OC(C)(C)C)C(=O)N[C@@H](C[C@]1(O)C(=O)Nc2ccccc21)C(=O)NCc1ccccc1", "RESULT": "inactive"}
{"TEST SMILES": "C[C@H](NC(=O)[C@H](Cc1ccc(OCc2ccccc2)cc1)NC(=O)CCCCCNC(=O)CCCCCNC(=O)CCCCCNC(=O)CCCCCNC(=O)CCCCC(=O)N[C@@H](Cc1ccc(OCc2ccccc2)cc1)C(=O)N[C@@H](C)C(=O)N[C@@H](C[C@]1(O)C(=O)Nc2ccccc21)C(=O)NCc1ccccc1)C(=O)N[C@@H](C[C@]1(O)C(=O)Nc2ccccc21)C(=O)NCc1ccccc1", "RESULT": "inactive"}
{"TEST SMILES": "C[C@H](NC(=O)[C@H](Cc1ccc(OCc2ccccc2)cc1)NC(=O)CCCCCNC(=O)CCCCCNC(=O)CCCCCNC(=O)CCCCCNC(=O)CCCCCNC(=O)CCCCC(=O)N[C@@H](Cc1ccc(OCc2ccccc2)cc1)C(=O)N[C@@H](C)C(=O)N[C@@H](C[C@]1(O)C(=O)Nc2ccccc21)C(=O)NCc1ccccc1)C(=O)N[C@@H](C[C@]1(O)C(=O)Nc2ccccc21)C(=O)NCc1ccccc1", "RESULT": "inactive"}

###

molecular target: Calpain-1 catalytic subunit (Homo sapiens); assay: Inhibition of human calpain 1 using Suc-LLVY-AMC as substrate assessed as remaining enzyme activity at 20 uM incubated for 5 mins prior to substrate addition measured for 30 mins by fluorescence assay
The source made the active and inactive calls. The calls are words filed in the database; no cut-off is given here.

{"TEST SMILES": "C[C@H](NC(=O)[C@H](Cc1ccc(OCc2ccccc2)cc1)NC(=O)CCCCCNC(=O)CCCCCNC(=O)CCCCCNC(=O)CCCCC(=O)NCCCCCC(=O)NCCCCCC(=O)NCCCCCC(=O)N[C@@H](Cc1ccc(OCc2ccccc2)cc1)C(=O)N[C@@H](C)C(=O)N[C@@H](C[C@]1(O)C(=O)Nc2ccccc21)C(=O)NCc1ccccc1)C(=O)N[C@@H](C[C@]1(O)C(=O)Nc2ccccc21)C(=O)NCc1ccccc1", "inhibition": "inactive"}
{"TEST SMILES": "C[C@H](NC(=O)[C@H](Cc1ccc(OCc2ccccc2)cc1)NC(=O)CCCCCNC(=O)CCCCCNC(=O)CCCCCNC(=O)CCCCCNC(=O)CCCCC(=O)NCCCCCC(=O)NCCCCCC(=O)NCCCCCC(=O)NCCCCCC(=O)N[C@@H](Cc1ccc(OCc2ccccc2)cc1)C(=O)N[C@@H](C)C(=O)N[C@@H](C[C@]1(O)C(=O)Nc2ccccc21)C(=O)NCc1ccccc1)C(=O)N[C@@H](C[C@]1(O)C(=O)Nc2ccccc21)C(=O)NCc1ccccc1", "inhibition": "inactive"}

###

Target: Proteasome Macropain subunit MB1 (Homo sapiens)
Sequence (P28074 whole entry): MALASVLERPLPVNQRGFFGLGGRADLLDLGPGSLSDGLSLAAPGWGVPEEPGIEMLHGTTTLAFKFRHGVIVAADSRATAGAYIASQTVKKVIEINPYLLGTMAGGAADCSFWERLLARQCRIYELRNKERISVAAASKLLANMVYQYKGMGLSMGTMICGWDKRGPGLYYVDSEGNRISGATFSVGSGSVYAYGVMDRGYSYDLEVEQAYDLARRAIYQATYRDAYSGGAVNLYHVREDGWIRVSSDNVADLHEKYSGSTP
Below, each of the compounds is paired with its reported IC50 value.

{"TEST SMILES": "C[C@H](NC(=O)[C@H](Cc1ccc(OCc2ccccc2)cc1)NC(=O)CCCCCNC(=O)CCCCCNC(=O)CCCCCNC(=O)CCCCCNC(=O)CCCCC(=O)NCCCCCC(=O)NCCCCCC(=O)NCCCCCC(=O)NCCCCCC(=O)N[C@@H](Cc1ccc(OCc2ccccc2)cc1)C(=O)N[C@@H](C)C(=O)N[C@@H](C[C@]1(O)C(=O)Nc2ccccc21)C(=O)NCc1ccccc1)C(=O)N[C@@H](C[C@]1(O)C(=O)Nc2ccccc21)C(=O)NCc1ccccc1", "IC50, nM": 20}
{"TEST SMILES": "C[C@H](NC(=O)[C@H](Cc1ccc(OCc2ccccc2)cc1)NC(=O)CCCCCNC(=O)CCCCCNC(=O)CCCCCNC(=O)CCCCC(=O)N[C@@H](Cc1ccc(OCc2ccccc2)cc1)C(=O)N[C@@H](C)C(=O)N[C@@H](C[C@]1(O)C(=O)Nc2ccccc21)C(=O)NCc1ccccc1)C(=O)N[C@@H](C[C@]1(O)C(=O)Nc2ccccc21)C(=O)NCc1ccccc1", "IC50, nM": 25.8}
